# credit: the supplement of paper PMC7877785

experimentDescription: self-splicing fitness, log relative to wild type (ln ratio); higher = more splicing; Tetrahymena group I intron in knt gene, E. coli kanamycin selection, DiMSum; sequences stand for … in CUCUCU…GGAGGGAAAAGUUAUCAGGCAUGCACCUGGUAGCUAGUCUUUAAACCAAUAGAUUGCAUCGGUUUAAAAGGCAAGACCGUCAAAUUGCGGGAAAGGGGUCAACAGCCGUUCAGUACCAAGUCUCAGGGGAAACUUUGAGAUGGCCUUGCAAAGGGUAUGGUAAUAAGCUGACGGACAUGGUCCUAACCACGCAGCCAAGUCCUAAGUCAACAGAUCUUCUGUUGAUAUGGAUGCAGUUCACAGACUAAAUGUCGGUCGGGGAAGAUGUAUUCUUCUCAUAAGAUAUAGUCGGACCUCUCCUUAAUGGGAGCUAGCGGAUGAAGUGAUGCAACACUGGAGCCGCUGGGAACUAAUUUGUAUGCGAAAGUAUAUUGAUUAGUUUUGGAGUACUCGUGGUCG;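 also: selection with 25 µg/mL kanamycin versus none on LB agar overnight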
testContext: 30 °C
Exercise: for every item that follows, state its recorded self-splicing fitness (ln).
Give bare numbers.

# count of solved cases: 5
sequenceData | experimentalEndpoint | valueObserved
ACGCAGCAAUAUUACGCAUU | self-splicing fitness (ln) | -3.81
UGAUAGCAAUAUUACGAUAG | self-splicing fitness (ln) | -0.826
CCGUAGCAAUAUUACGUUCG | self-splicing fitness (ln) | -0.619
GCGCAGCAAUAUUACGAAUC | self-splicing fitness (ln) | 0.348
UAACAGCAAUAUUACGCCAC | self-splicing fitness (ln) | -3.93

Please state, for each entry, its recorded self-splicing fitness (ln).
1. GGUAAGCAAUAUUACGUACA
2. GUGAAGCAAUAUUACGAGCU
3. UGUCAGCAAUAUUACGUCAU

1: -0.648; 2: -1.12; 3: -1.79
